- Test name: chemical genetic growth profiling, strain panel (AID 1159580);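 also: tested at 20 µM; growth read once vehicle control cultures reached saturation at 30 °C; 1 = growth at the plate median or of vehicle wells; lower values mean less growth of the strain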
- Protocol conditions: S. cerevisiae deletion strains, growth OD, locus YJR075W, strain HOC1, stronger effect = lower value
About 2,000 (36%) of roughly 5,500 compounds were called active. Inconclusive results (about 18%) are left out. The list shows a part of the results.
The following compounds are listed with their measured normalized growth values.

Compound | normalized growth
COc1ccc(S(=O)(=O)Nc2ccccc2Oc2ccc(Cl)cc2Cl)cc1OC | 1
ClC1=C(Cl)C2(Cl)C3C4C=CC(C4)C3C1(Cl)C2(Cl)Cl (stereo unspecified) | 1.01
ClC1=C(Cl)C2(Cl)C3C(Cl)C=CC3C1(Cl)C2(Cl)Cl (stereo unspecified) | 1
COc1ccc(C2=C(C(C)=O)C(C)=NC(=S)C2C#N)cc1 (stereo unspecified) | 1.01
CN(C)C(=S)SSC(=S)N(C)C | 0.0622
CCCCNc1cc(C(=O)O)cc(S(N)(=O)=O)c1Oc1ccccc1 | 0.971

====

- Test name: chemical genetic growth profiling, strain panel (AID 1159580)
- Protocol conditions: S. cerevisiae deletion strains, growth OD, locus YCL061C, strain MRC1 (second series)
In all, about 5,500 compounds went through this assay and about 2,000 (36%) were called active. About 18% were inconclusive and are not listed. Rule as the data show it: active = normalized growth mostly below about 0.91 (no sharp cut-off); inconclusive = no clear call, values can overlap the other calls; inactive = mostly above about 0.92. The list shows a part of the results.
Outcomes: active, inactive

Compound | Category label
CNCC(O)c1ccc(O)c(O)c1 (stereo unspecified) | inactive
Ic1ccc(N2CCN(Cc3c[nH]c4ncccc34)CC2)cc1 | active
CNC(=O)OCC[N+](C)(C)C | inactive
CCN(CC)CCCC(C)Nc1c2ccc(Cl)cc2nc2ccc(OC)cc12 (stereo unspecified) | active
NNC(N)=O | inactive
COc1ccc(OC)c(C(O)C(C)N)c1 (stereo unspecified) | inactive
Clc1ccc(N2CCN(Cc3c[nH]c4ncccc34)CC2)cc1 | inactive
CC(C)C[C@H](NC(=O)[C@H](O)[C@H](N)Cc1ccccc1)C(=O)O | inactive
CC1=C(CC(=O)O)c2cc(F)ccc2/C1=C\c1ccc(S(C)=O)cc1 (stereo unspecified) | inactive
O=C1NCN(c2ccccc2)C12CCN(CC1COc3ccccc3O1)CC2 (stereo unspecified) | inactive
COc1ccc2c(c1OC)C(=O)O[C@H]2[C@@H]1c2cc3c(cc2CCN1C)OCO3 | inactive
OCc1ccc(-c2nn(Cc3ccccc3)c3ccccc23)o1 | inactive
CCOC(=O)c1cnc2c(cnn2CC)c1NN=C(C)C | active
CC(C)C[C@H](NC(=O)[C@@H](O)[C@H](N)Cc1ccccc1)C(=O)O | inactive
CC(C)(O)C1C2OC(=O)C1C1(O)CC3OC34C(=O)OC2C14C (stereo unspecified) (tested in a mixture with another compound) | inactive
C[C@@H]1O[C@@H](O[C@H]2C[C@@H](O)[C@]3(CO)[C@H]4[C@H](O)C[C@]5(C)[C@@H](C6=CC(=O)OC6)CC[C@]5(O)[C@@H]4CC[C@]3(O)C2)[C@H](O)[C@H](O)[C@H]1O | inactive
Nc1c(S(=O)(=O)O)cc(Nc2ccc(Nc3nc(Cl)nc(Nc4ccc(S(=O)(=O)O)cc4)n3)c(S(=O)(=O)O)c2)c2c1C(=O)c1ccccc1C2=O | inactive
C[C@]12CCC(=O)C=C1CC[C@@H]1[C@@H]2CC[C@]2(C)C(=O)CC[C@@H]12 | inactive
COCc1nc2c([nH]1)c(=O)n(C)c(=O)n2CC(C)C | inactive
NCC(O)C1CCCCCCC1 (stereo unspecified) | inactive
OC1(c2ccc(Cl)cc2)CCN(Cc2c[nH]c3ccccc23)CC1 | inactive

====

- Test name: chemical genetic growth profiling, strain panel (AID 1159580)
- Protocol conditions: S. cerevisiae deletion strains, growth OD, locus YNL307C, strain MCK1, stronger effect = lower value
Out of some 5,500 compounds screened, about 2,000 (36%) were called active. Not shown: some 18% with an inconclusive outcome. The list shows a part of the results.
The following compounds are listed with their measured normalized growth values.
Property label: normalized growth

Compound | Property label | Result number
CC[C@H](/C=C/C(C)C1CCC2C3CCC4=CC(=O)CC[C@]4(C)C3CC[C@]12C)C(C)C (some centres undefined) | normalized growth | 1.01
CCN(CC)CCCC(C)Nc1c2ccc(Cl)cc2nc2ccc(OC)cc12 (centres undefined) | normalized growth | 0.622
CCN(CC)CCCC(C)Nc1ccnc2cc(Cl)ccc12 (centres undefined) | normalized growth | 1.02
NC(=O)c1ccc[n+]([C@@H]2O[C@H](COP(=O)([O-])OP(=O)(O)OC[C@H]3O[C@@H](n4cnc5c(N)ncnc54)[C@H](O)[C@@H]3O)[C@@H](O)[C@H]2O)c1 | normalized growth | 1.01
CC(=O)[C@H]1CCC2C3CCC4=CC(=O)CC[C@]4(C)C3CC[C@@]21C (some centres undefined) | normalized growth | 0.185
C[C@]12CCC(=O)C=C1CCC1C2CC[C@@]2(C)C1CC[C@@H]2O (some centres undefined) | normalized growth | 0.989
COP(=O)(OC)OC=C(Cl)Cl | normalized growth | 1
CC(=O)c1c(O)c(C)c(O)c2c1oc1c(C(C)=O)c(O)c(C)c(O)c12 | normalized growth | 0.941
Cc1c(O)c(C(=O)CC(C)C)c2oc3c(C(=O)CC(C)C)c(O)c(C)c(O)c3c2c1O | normalized growth | 0.994

====

- Test name: chemical genetic growth profiling, strain panel (AID 1159580);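 also: tested at 20 µM; growth read once vehicle control cultures reached saturation at 30 °C; 1 = growth at the plate median or of vehicle wells; lower values mean less growth of the strain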
- Protocol conditions: S. cerevisiae deletion strains, growth OD, locus YPL078C, strain atp4
The campaign covered roughly 5,500 compounds. About 2,000 (36%) were called active. Not shown: some 18% with an inconclusive outcome. Rule as the data show it: active = normalized growth mostly below about 0.91 (no sharp cut-off); inconclusive = no clear call, values can overlap the other calls; inactive = mostly above about 0.92. This is one part of the list.
Outcomes: active, inactive

Molecule | Category label
CCOC(=O)CCC(=O)O[C@H]1[C@H](O[C@@H]2[C@@H](C)[C@H](O[C@H]3C[C@@](C)(OC)[C@@H](O)[C@H](C)O3)[C@@H](C)C(=O)O[C@H](CC)[C@@](C)(O)[C@H](O)[C@@H](C)C(=O)[C@H](C)C[C@@]2(C)O)O[C@H](C)C[C@@H]1N(C)C | inactive
CC(C(=O)O)c1ccc(-c2ccccc2)c(F)c1 (centres undefined) | inactive
CN(C)c1ccc(C(=C2C=CC(=[N+](C)C)C=C2)c2ccc(N(C)C)cc2)cc1 | active
CCOC(=O)c1c(C)cc(O)c(C=O)c1O | active
CN(C)CC/C=C1\c2ccccc2Sc2ccc(Cl)cc21 | active
O=C1C=CC(=C(c2ccc(O)cc2)c2ccc(O)cc2)C=C1 | inactive
COc1ccc(OC)c(C(O)C(C)N)c1 (centres undefined) | inactive
COc1ccc2c(c1OC)C(=O)O[C@@H]2[C@H]1c2cc3c(cc2CCN1C)OCO3 | inactive
CC(C(=O)O)c1cccc(C(=O)c2ccccc2)c1 (centres undefined) | inactive

====

- Test name: chemical genetic growth profiling, strain panel (AID 1159580);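 also: tested at 20 µM; growth read once vehicle control cultures reached saturation at 30 °C; 1 = growth at the plate median or of vehicle wells; lower values mean less growth of the strain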
- Protocol conditions: S. cerevisiae deletion strains, growth OD, locus YLR221C, strain rsa3
In all, about 5,500 compounds went through this assay and about 2,000 (36%) were called active. Inconclusive results (about 18%) are left out. Rule as the data show it: active = normalized growth mostly below about 0.91 (no sharp cut-off); inconclusive = no clear call, values can overlap the other calls; inactive = mostly above about 0.92. This is one part of the list.
Outcomes: active, inactive

Compound | Category label
CCCCCCCCCCCCCCCC(=O)OC/C=C(C)/C=C/C=C(C)/C=C/C1=C(C)CCCC1(C)C | inactive
CC(C[N+](C)(C)C)OC(N)=O (stereo not given) | inactive
C[N+](C)(C)CCOC(N)=O | inactive
CC(Oc1ccccc1)C(=O)N[C@@H]1C(=O)N2[C@@H]1SC(C)(C)[C@@H]2C(=O)O (stereo not given in full) | inactive
CC1=C(/C=C/C(C)=C/C=C/C(C)=C/C=C/C=C(C)/C=C/C=C(C)/C=C/C(=O)[C@]2(C)C[C@@H](O)CC2(C)C)C(C)(C)C[C@H](O)C1 | inactive
COc1cc(/C=C/C(=O)/C=C(O)/C=C/c2ccc(O)c(OC)c2)ccc1O | active
COc1cc(O)c(C(=O)/C=C/c2ccc(O)c(OC)c2)c(OC)c1 | inactive
COC1=CC(=O)C[C@@H](C)[C@]12Oc1c(Cl)c(OC)cc(OC)c1C2=O | inactive
CCCCNc1cc(C(=O)O)cc(S(N)(=O)=O)c1Oc1ccccc1 | inactive
COc1cc(O)c(C(=O)/C=C/c2ccc(OC)c(O)c2)c(OC)c1 | active

====

- Test name: chemical genetic growth profiling, strain panel (AID 1159580);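 also: tested at 20 µM; growth read once vehicle control cultures reached saturation at 30 °C; 1 = growth at the plate median or of vehicle wells; lower values mean less growth of the strain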
- Protocol conditions: S. cerevisiae deletion strains, growth OD, locus YOR083W, strain WHI5
Hit rate of the full screen: of about 5,500 compounds, about 2,000 (36%) were called active. Another 18% or so got no clear call; they are omitted. Cut-off read from the data, not from the text of the source: active = normalized growth mostly below about 0.91 (no sharp cut-off); inconclusive = no clear call, values can overlap the other calls; inactive = mostly above about 0.92. The list shows a part of the results.
Outcomes: active, inactive

Compound | Category label
CN(C)C(=S)SSC(=S)N(C)C | active
COc1cc2c(cc1OC)[C@@H]1C(=O)c3ccc(O)c(CC=C(C)C)c3O[C@@H]1CO2 | inactive
CC1=C(/C=C/C(C)=C/C=C/C(C)=C/C=C/C=C(C)/C=C/C=C(C)/C=C/C(=O)[C@]2(C)C[C@@H](O)CC2(C)C)C(C)(C)C[C@H](O)C1 | inactive
CC(=O)OCC(=O)[C@H]1CCC2C3CCC4=CC(=O)CC[C@]4(C)C3CC[C@@]21C (some centres undefined) | inactive
CC1=C(/C=C/C(C)=C/C=C/C(C)=C/C=C/C=C(C)/C=C/C=C(C)/C=C/C2=C(C)C(=O)C(O)CC2(C)C)C(C)(C)CC(O)C1=O (centres undefined) | inactive
CCN(CCO)CCCC(C)Nc1ccnc2cc(Cl)ccc12 (centres undefined) | inactive
COc1cc2c(cc1OC)[C@@H]1C(=O)c3ccc4oc(C(C)C)cc4c3O[C@@H]1CO2 | inactive
CCN(CC)CCCC(C)Nc1c2ccc(Cl)cc2nc2ccc(OC)cc12 (centres undefined) | inactive
CCCCCCCCNC(C)C(O)c1ccc(SC(C)C)cc1 (centres undefined) | active

// data source = PubChem BioAssay AID1159580
